# Tested on: E. coli ELZ4251
# experimental_protocol: Antibacterial activity, MIC, multi-drug resistant clinical isolate (Table 3)
# Assay type: cell-based
# experimental_setup: Escherichia coli
MIC values, listed per item

| compound | MIC |
| --- | --- |
| CCc1c(-c2ccc3c(c2)cc(CN2CCCC2)n3C)[nH]c(=O)c(C(=O)O)c1O | 12.5 to 150 µg/mL |
| CCc1cc(C(=O)O)c(=O)[nH]c1-c1ccc2c(ccn2C)c1 | 12.5 to 150 µg/mL |
| Cn1c(CN2CCC2)cc2cc(-c3cc(O)c(C(=O)O)c(=O)[nH]3)ccc21 | 12.5 to 150 µg/mL |
| C#CCNCc1cc2cc(-c3[nH]c(=O)c(C(=O)O)c(O)c3CC)ccc2n1C.Cl | 3.5 to 12.5 µg/mL |
| CCc1c(-c2ccc3c(c2)cc(CN2CCC[C@H](NC)C2)n3C)[nH]c(=O)c(C(=O)O)c1O | 12.5 to 150 µg/mL |
| CCc1c(-c2ccc3c(c2)cc(CN2C[C@H]4CCC[C@@H](N(C)C)[C@H]4C2)n3C)[nH]c(=O)c(C(=O)O)c1O | 12.5 to 150 µg/mL |
| CCc1cc(C(=O)O)c(=O)[nH]c1-c1ccc2c(c1)cc(CN1CCCC1)n2C | 12.5 to 150 µg/mL |
| CNC1Cc2cc3cc(-c4[nH]c(=O)c(C(=O)O)c(O)c4C)ccc3n2C1.Cl (centres unmarked) | 1 to 3.5 µg/mL |

* * *

# Test system: E. coli ELZ4251
# experimental_protocol: Antibacterial activity, MIC, multi-drug resistant clinical isolate (Table 3)
# Format: cell-based
# experimental_setup: Escherichia coli
MIC values, listed per item

| compound | MIC |
| --- | --- |
| CCc1c(-c2ccc3c(c2)cc(CNCC2CCCC2)n3C)[nH]c(=O)c(C(=O)O)c1O.Cl | 12.5 to 150 µg/mL |
| CCc1c(-c2ccc3c(c2)cc(CN2CCCNCC2)n3C)[nH]c(=O)c(C(=O)O)c1O.Cl.Cl | 3.5 to 12.5 µg/mL |
| Cn1ccc2cc(-c3[nH]c(=O)c(C(=O)O)cc3C3CC3)ccc21 | 12.5 to 150 µg/mL |
| Cc1c(-c2ccc3c(c2)cc(CN2CCCC2)n3C)[nH]c(=O)c(C(=O)O)c1O | 1 to 3.5 µg/mL |
| CCc1c(-c2ccc3c(c2)cc(CNCC2CCCN2CC)n3C)[nH]c(=O)c(C(=O)O)c1O.Cl.Cl (centres unmarked) | 12.5 to 150 µg/mL |
| CCc1c(-c2ccc3c(c2)cc(CN2CC(F)C2)n3C)[nH]c(=O)c(C(=O)O)c1O | 12.5 to 150 µg/mL |
| CCc1c(-c2ccc3ccn(C)c3c2)[nH]c(=O)c(C(=O)O)c1O | 12.5 to 150 µg/mL |
| CCc1c(-c2ccc3c(c2)c(C#N)c(OC)n3C)[nH]c(=O)c(C(=O)O)c1O | 12.5 to 150 µg/mL |
| CCc1c(-c2ccc3c(c2)cc(CN)n3C)[nH]c(=O)c(C(=O)O)c1O | 3.5 to 12.5 µg/mL |
| CCc1c(-c2ccc3c(c2)cc(CC2CC2C)n3C)[nH]c(=O)c(C(=O)O)c1O.Cl (centres unmarked) | 3.5 to 12.5 µg/mL |
| CCc1c(-c2ccc3c(c2)cc(CN2CC(N(C)C)C2)n3C)[nH]c(=O)c(C(=O)O)c1O | 3.5 to 12.5 µg/mL |
| CCc1c(-c2ccc3ncccc3c2)[nH]c(=O)c(C(=O)O)c1O | 3.5 to 12.5 µg/mL |
| CCc1c(-c2ccc3c(c2)cc(CN2CCC(N4CCCCC4)CC2)n3C)[nH]c(=O)c(C(=O)O)c1O | 12.5 to 150 µg/mL |
| CCc1c(-c2ccc3c(c2)cc(CN(CC)CC)n3C)[nH]c(=O)c(C(=O)O)c1O | 3.5 to 12.5 µg/mL |
| CCc1c(-c2ccc3c(c2)cc(CNC2CCCC2)n3C)[nH]c(=O)c(C(=O)O)c1O.Cl | 3.5 to 12.5 µg/mL |
| CCc1c(-c2ccc3c(c2)cc(CNC2CC2)n3C)[nH]c(=O)c(C(=O)O)c1O.Cl | 1 to 3.5 µg/mL |
| CCc1c(-c2ccc3c(c2)cc(CN2CCC(N(C)C)C2)n3C)[nH]c(=O)c(C(=O)O)c1O (centres unmarked) | 12.5 to 150 µg/mL |
